measured on: Gonadotropin-releasing hormone receptor (Homo sapiens, UniProt P30968)
Sequence (P30968 whole entry): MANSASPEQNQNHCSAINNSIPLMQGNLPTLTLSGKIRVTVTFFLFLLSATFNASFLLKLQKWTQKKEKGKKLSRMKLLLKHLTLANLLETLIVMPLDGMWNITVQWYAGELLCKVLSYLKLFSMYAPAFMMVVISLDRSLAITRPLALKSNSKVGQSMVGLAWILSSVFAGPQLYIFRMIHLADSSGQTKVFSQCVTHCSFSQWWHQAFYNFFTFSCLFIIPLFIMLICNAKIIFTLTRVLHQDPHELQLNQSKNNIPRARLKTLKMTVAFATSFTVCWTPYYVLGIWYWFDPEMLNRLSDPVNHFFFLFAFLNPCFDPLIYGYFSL
test method notes: Displacement of [125I]-DTyr6-His5-GnRH from human type 1 GnRH receptor expressed in HEK293 cell membranes after 16 to 19 hrs by gamma counting analysis
quantity kind: IC50 (nM)
Hi! Could you send only the number? It should be in nM, unit omitted.

Identify the measured IC50 of `CC(C)C[C@H](NC(=O)CN1CN(c2ccccc2)C2(CCN(C(=O)[C@H](Cc3c[nH]c4ccccc34)NC(=O)[C@H](Cc3c[nH]cn3)NC(=O)[C@@H]3CCC(=O)N3)CC2)C1=O)C(=O)N[C@@H](CCCNC(=N)N)C(=O)N1CCC[C@H]1C(=O)NCC(N)=O` for Gonadotropin-releasing hormone receptor (Homo sapiens, UniProt P30968).
724

Recall the recorded IC50 for `NC(=O)CNC(=O)[C@H]1CCCN1C(=O)[C@H](Cc1ccc(O)cc1)NC(=O)[C@H](Cc1c[nH]c2ccccc12)NC(=O)C1(NC(=O)[C@@H](Cc2cnc[nH]2)NC(=O)[C@@H](CO)NC(=O)[C@@H](Cc2c[nH]c3ccccc23)NC(=O)[C@@H](Cc2c[nH]cn2)NC(=O)[C@H]2CCC(=O)N2)CCCC1` with Gonadotropin-releasing hormone receptor (Homo sapiens, UniProt P30968) and state it.
282

I'm curious: which IC50 was measured for `NC(=O)CNC(=O)[C@@H]1CCCN1C(=O)[C@@H](Cc1ccc(O)cc1)NC(=O)[C@@H](Cc1c[nH]c2ccccc12)NC(=O)C1(NC(=O)[C@H](Cc2cnc[nH]2)NC(=O)[C@H](CO)NC(=O)[C@H](Cc2c[nH]c3ccccc23)NC(=O)[C@H](Cc2c[nH]cn2)NC(=O)[C@@H]2CCC(=O)N2)CCCCC1` tested on Gonadotropin-releasing hormone receptor (Homo sapiens, UniProt P30968)?
407

GET /values?readout=IC50&system=Gonadotropin-releasing hormone receptor (Homo sapiens, UniProt P30968)&item= `NC(=O)CNC(=O)[C@H]1CCCN1C(=O)[C@H](Cc1ccc(O)cc1)NC(=O)[C@H](Cc1c[nH]c2ccccc12)NC(=O)C1(NC(=O)[C@@H](Cc2cnc[nH]2)NC(=O)[C@@H](CO)NC(=O)[C@@H](Cc2c[nH]c3ccccc23)NC(=O)[C@@H](Cc2c[nH]cn2)NC(=O)[C@H]2CCC(=O)N2)CCC1`
191

Give IC50 (Gonadotropin-releasing hormone receptor (Homo sapiens, UniProt P30968)) of the following compound: `CC(C)C[C@H](NC(=O)C1(NC(=O)[C@H](Cc2ccc(O)cc2)NC(=O)[C@H](CO)NC(=O)[C@H](Cc2c[nH]c3ccccc23)NC(=O)[C@H](Cc2c[nH]cn2)NC(=O)[C@@H]2CCC(=O)N2)CCCCC1)C(=O)N[C@@H](CCCNC(=N)N)C(=O)N1CCC[C@H]1C(=O)NCC(N)=O`
550

Find the measured IC50: item `CC(C)C[C@H](NC(=O)C1(NC(=O)[C@H](Cc2ccc(O)cc2)NC(=O)[C@H](CO)NC(=O)[C@H](Cc2c[nH]c3ccccc23)NC(=O)[C@H](Cc2c[nH]cn2)NC(=O)[C@@H]2CCC(=O)N2)CCCC1)C(=O)N[C@@H](CCCNC(=N)N)C(=O)N1CCC[C@H]1C(=O)NCC(N)=O` , target or system Gonadotropin-releasing hormone receptor (Homo sapiens, UniProt P30968).
589

* * *

test method notes: Metabolic stability in rat plasma at 100 uM after 4 hrs by HPLC/mass spectrometric analysis relative to GnRH2
Assay type: ADME, cell-free
cond: read-out: Stability
quantity kind: remaining at 4 h, 100 µM (%)
Expressed in %, but write only the number.

# query: remaining at 4 h, 100 µM of entry `NC(=O)CNC(=O)[C@@H]1CCCN1C(=O)[C@@H](Cc1ccc(O)cc1)NC(=O)[C@@H](Cc1c[nH]c2ccccc12)NC(=O)C1(NC(=O)[C@H](Cc2cnc[nH]2)NC(=O)[C@H](CO)NC(=O)[C@H](Cc2c[nH]c3ccccc23)NC(=O)[C@H](Cc2c[nH]cn2)NC(=O)[C@@H]2CCC(=O)N2)CCCCC1`
15

* * *

test method notes: Metabolic stability in rat plasma at 100 uM after 4 hrs by HPLC/mass spectrometric analysis relative to GnRH1
Format: ADME, cell-free
cond: read-out: Stability
quantity kind: remaining at 4 h, 100 µM (%)
Record the value in %, omitting the unit from your answer.

Give its remaining at 4 h, 100 µM value. Item: `CC(C)C[C@H](NC(=O)C1(NC(=O)[C@H](Cc2ccc(O)cc2)NC(=O)[C@H](CO)NC(=O)[C@H](Cc2c[nH]c3ccccc23)NC(=O)[C@H](Cc2c[nH]cn2)NC(=O)[C@@H]2CCC(=O)N2)CCCCC1)C(=O)N[C@@H](CCCNC(=N)N)C(=O)N1CCC[C@H]1C(=O)NCC(N)=O`
15

* * *

test method notes: Metabolic stability in rat plasma assessed as half life at 100 uM by HPLC/mass spectrometric analysis
Format: ADME, cell-free
Assignment: determine reported half-life at 100 µM for the given compounds.
// units = h; emit number, no label

Could you share which half-life at 100 µM value was measured for `CC(C)C[C@H](NC(=O)CNC(=O)[C@H](Cc1ccc(O)cc1)NC(=O)[C@H](CO)NC(=O)[C@H](Cc1c[nH]c2ccccc12)NC(=O)[C@H](Cc1cnc[nH]1)NC(=O)[C@@H]1CCC(=O)N1)C(=O)N[C@@H](CCCNC(=N)N)C(=O)N1CCC[C@H]1C(=O)NCC(N)=O` ?
2.63

Which measured half-life at 100 µM value corresponds to `CC(C)C[C@H](NC(=O)C1(NC(=O)[C@H](Cc2ccc(O)cc2)NC(=O)[C@H](CO)NC(=O)[C@H](Cc2c[nH]c3ccccc23)NC(=O)[C@H](Cc2c[nH]cn2)NC(=O)[C@@H]2CCC(=O)N2)CCCCC1)C(=O)N[C@@H](CCCNC(=N)N)C(=O)N1CCC[C@H]1C(=O)NCC(N)=O` ?
3.96
